The reported numbers originate from ChEMBL document CHEMBL1772969.

- Test system: Plasmodium falciparum
- Assay Overview: Antimalarial activity against chloroquine-sensitive Plasmodium falciparum D6 after 48 hrs by [3H]hypoxanthine incorporation assay
- Type: functional, organism-based
Field: IC50. Provide a value for each of the compounds that follow.
Give the value in nM but do not write nM after it.

Recorded IC50 (compound CC[C@H]1OC(=O)[C@H](C)[C@@H](O[C@H]2C[C@@](C)(OC)[C@@H](O)[C@H](C)O2)[C@H](C)[C@@H](O[C@@H]2O[C@H](C)C[C@H](N(C)C)[C@H]2O)[C@](C)(O)C[C@@H](C)CN(CCNC(=S)Nc2ccccc2)[C@H](C)[C@@H](O)[C@]1(C)O ): 183

Recorded IC50 (compound CC[C@H]1OC(=O)[C@H](C)[C@@H](O[C@H]2C[C@@](C)(OC)[C@@H](O)[C@H](C)O2)[C@H](C)[C@@H](O[C@@H]2O[C@H](C)C[C@H](N(C)C)[C@H]2O)[C@](C)(O)C[C@@H](C)CN(CCCNC(=O)Nc2ccc3ccccc3c2)[C@H](C)[C@@H](O)[C@]1(C)O ): 138

Recorded IC50 (compound CC[C@H]1OC(=O)[C@H](C)[C@@H](O[C@H]2C[C@@](C)(OC)[C@@H](O)[C@H](C)O2)[C@H](C)[C@@H](O[C@@H]2O[C@H](C)C[C@H](N(C)C)[C@H]2O)[C@](C)(O)C[C@@H](C)CN(CCNC(=O)Nc2ccc3ccccc3c2)[C@H](C)[C@@H](O)[C@]1(C)O ): 71

Recorded IC50 (compound CC[C@H]1OC(=O)[C@H](C)[C@@H](O[C@H]2C[C@@](C)(OC)[C@@H](O)[C@H](C)O2)[C@H](C)[C@@H](O[C@@H]2O[C@H](C)C[C@H](N(C)C)[C@H]2O)[C@](C)(O)C[C@@H](C)CN(CCCNC(=S)NCc2ccccc2)[C@H](C)[C@@H](O)[C@]1(C)O ): 257

Recorded IC50 (compound CC[C@H]1OC(=O)[C@H](C)[C@@H](O[C@H]2C[C@@](C)(OC)[C@@H](O)[C@H](C)O2)[C@H](C)[C@@H](O[C@@H]2O[C@H](C)C[C@H](N(C)C)[C@H]2O)[C@](C)(O)C[C@@H](C)CN(CCNC(=S)NCCCc2ccccc2)[C@H](C)[C@@H](O)[C@]1(C)O ): 182

Recorded IC50 (compound CC[C@H]1OC(=O)[C@H](C)[C@@H](O[C@H]2C[C@@](C)(OC)[C@@H](O)[C@H](C)O2)[C@H](C)[C@@H](O[C@@H]2O[C@H](C)C[C@H](N(C)C)[C@H]2O)[C@](C)(O)C[C@@H](C)CN(CCCN(CCC#N)C(=O)Nc2ccc(Cl)cc2Cl)[C@H](C)[C@@H](O)[C@]1(C)O ): 229

Recorded IC50 (compound CC[C@H]1OC(=O)[C@H](C)[C@@H](O[C@H]2C[C@@](C)(OC)[C@@H](O)[C@H](C)O2)[C@H](C)[C@@H](O[C@@H]2O[C@H](C)C[C@H](N(C)C)[C@H]2O)[C@](C)(O)C[C@@H](C)CN(CCNC(=O)NC(C)C)[C@H](C)[C@@H](O)[C@]1(C)O ): 1400

====

- Assay Overview: Half life in mouse liver microsomes at 1 uM by LCMS analysis
- Type: ADME, Microsome
Field: half-life at 1 µM. Provide a value for each of the compounds that follow.

Recorded half-life at 1 µM (compound CC[C@H]1OC(=O)[C@H](C)[C@@H](O[C@H]2C[C@@](C)(OC)[C@@H](O)[C@H](C)O2)[C@H](C)[C@@H](O[C@@H]2O[C@H](C)C[C@H](N(C)C)[C@H]2O)[C@](C)(O)C[C@@H](C)CN(C)[C@H](C)[C@@H](O)[C@]1(C)O ): > 2 h

Recorded half-life at 1 µM (compound CC[C@H]1OC(=O)[C@H](C)[C@@H](O[C@H]2C[C@@](C)(OC)[C@@H](O)[C@H](C)O2)[C@H](C)[C@@H](O[C@@H]2O[C@H](C)C[C@H](N(C)C)[C@H]2O)[C@](C)(O)C[C@@H](C)CN(CCNC(=S)NCCc2ccccc2)[C@H](C)[C@@H](O)[C@]1(C)O ): > 2 h
